Where do these numbers come from? They come from patent US7799775B2.

TGT: human 5-HT1A receptor (Homo sapiens, UniProt P08908)
Construct: purchased Packard Bioscience; host or cells: CHO cells (membrane preparation)
ASSAY OVERVIEW: Affinity measurement of the compounds to human 5-HT1A receptor (in vitro), [3H]8-OH-DPAT binding
CONDITIONS: test compound 100 nmols/L; [3H]8-OH-DPAT 0.25 nmols/L; CHO cell membrane expressing human 5-HT1A receptor; read-out: Percent Inhibition (%) on Each Receptor's Binding at 10^−7M, 5-HT1A
Kind request: treat 90% as inclusive, so inhibition at 0.1 µM at 90% or higher is yes (1), anything lower is no (0).

Worked cases, answers included:
Nn1c(SCCCN2CCN(c3ccc4ccccc4n3)CC2)nc2sc3c(c2c1=O)CCCC3 ... yes (1)
Fc1ccc2ccnc(N3CCNCC3)c2c1 ... no (0)
c1cc2sccc2c(N2CCN3CCC[C@H]3C2)n1 ... no (0)
c1cc2occc2c(N2CCN3CCC[C@@H]3C2)n1 ... no (0)

Query block: Check this compound for inhibition at 0.1 µM at or above 90%: COc1ccc2ccnc(N3CCNC(C)C3)c2c1 (centres unmarked)
Result block: yes (1)

Query block: Check this compound for inhibition at 0.1 µM at or above 90%: `CCCc1cc(=O)[nH]c(SCCCN2CCN(c3ccc4ccccc4n3)CC2)n1`
Result block: no (0)

Query block: Check this compound for inhibition at 0.1 µM at or above 90%: `Oc1ccc2ccnc(N3CCN4CCC[C@H]4C3)c2c1`
Result block: yes (1)

----------
Below, each entry is listed with its recorded inhibition at 0.1 µM.
TGT: human 5-HT3 receptor (Homo sapiens, UniProt P46098)
Construct: purchased BIOLINKS K.K; host or cells: HEK-293 cells (membrane preparation)
Sequence (P46098 24-478): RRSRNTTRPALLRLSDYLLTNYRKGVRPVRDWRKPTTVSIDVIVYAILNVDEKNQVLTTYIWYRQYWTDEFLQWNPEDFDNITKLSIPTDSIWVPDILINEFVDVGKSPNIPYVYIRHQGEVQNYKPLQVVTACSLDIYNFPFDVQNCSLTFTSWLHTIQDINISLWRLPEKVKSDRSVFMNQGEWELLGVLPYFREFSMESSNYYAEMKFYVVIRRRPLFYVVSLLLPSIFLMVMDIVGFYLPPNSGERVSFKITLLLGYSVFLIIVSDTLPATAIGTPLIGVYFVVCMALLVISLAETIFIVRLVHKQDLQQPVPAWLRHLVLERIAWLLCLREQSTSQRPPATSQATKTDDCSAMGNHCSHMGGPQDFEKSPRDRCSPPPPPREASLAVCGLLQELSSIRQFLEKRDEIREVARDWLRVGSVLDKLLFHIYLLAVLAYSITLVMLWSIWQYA
ASSAY OVERVIEW: Measurement of affinity to human 5-HT3 receptor (in vitro), [3H]BRL-43694 binding
CONDITIONS: test compound 100 nmols/L; [3H]BRL-43694 0.5 nmols/L; HEK-293 cell membrane expressing human 5-HT3 receptor; read-out: Percent Inhibition (%) on Each Receptor's Binding at 10^−7M, 5-HT3

Some solved cases for reference:
CCn1c(CCCCN2CCN(c3ccc4ccccc4n3)CC2)nc2c(c1=O)CCCC2 ... 94.5%
Cn1c(CCCCN2CCN(c3ccc4ccccc4n3)CC2)nc2c(c1=O)CCCC2 ... 94.2%
c1ccc(CO[C@@H]2C[C@H]3CN(c4nccc5ccsc45)CCN3C2)cc1 ... 25.6%

# evaluate next
// field: inhibition at 0.1 µM; key: `Brc1cc2c(N3CCN4CCC[C@H]4C3)nccc2s1` ; value = 98.3%

----------
Below, each entry is listed with its recorded melting point.

Cc1sc2nc(SCCCN3CCN(c4ccc5ccccc5n4)CC3)[nH]c(=O)c2c1C [Example 2-4] ... 224.8 to 225.9 °C

// field: melting point; key: Cc1sc2nc(SCCCN3CCN(c4nc5ccccc5s4)CC3)n(N)c(=O)c2c1C [Example 1-6] ; value = 200.5 to 201.2 °C

// field: melting point; key: O=c1[nH]c(SCCCN2CCN(c3ccccn3)CC2)nc2sc3c(c12)CCCC3 [Example 2-2] ; value = 190.2 to 191.6 °C

----------
TGT: human 5-HT3 receptor (Homo sapiens, UniProt P46098)
Construct: purchased BIOLINKS K.K; host or cells: HEK-293 cells (membrane preparation)
ASSAY OVERVIEW: Measurement of affinity to human 5-HT3 receptor (in vitro), [3H]BRL-43694 binding
CONDITIONS: test compound 100 nmols/L; [3H]BRL-43694 0.5 nmols/L; HEK-293 cell membrane expressing human 5-HT3 receptor; read-out: Percent Inhibition (%) on Each Receptor's Binding at 10^−7M, 5-HT3
Kind request: treat 90% as inclusive, so inhibition at 0.1 µM at 90% or higher is 1 (yes), anything lower is 0 (no).

Worked cases, answers included:
CN1CCN(c2nccc3sc(Br)cc23)CC1 ... 0 (no)
Nn1c(CCCCN2CCN(c3ccc4ccccc4n3)CC2)nc2ccc(F)cc2c1=O ... 0 (no)
c1cc2ccoc2c(N2CCNCC2)n1 [Production Example 1, 7-piperazin-1-ylfuro[2,3-c]pyridine] ... 0 (no)
CN1CCN(c2nccc3c(Cl)cccc23)CC1 ... 1 (yes)
Nn1c(SCCCN2CCN(c3ccc4ccccc4n3)CC2)nc2sc3c(c2c1=O)CCCC3 ... 1 (yes)
CCOC(=O)c1sc2nc(SCCCN3CCN(c4ccc5ccccc5n4)CC3)n(N)c(=O)c2c1C ... 1 (yes)

Query block: Check this molecule for inhibition at 0.1 µM at or above 90%: `Cc1sc2nc(CCCCN3CCN(c4ccc5ccccc5n4)CC3)n(C)c(=O)c2c1C`
Result block: 0 (no)

Query block: Check this molecule for inhibition at 0.1 µM at or above 90%: `COc1ccc2c(N3CCNCC3)nccc2c1`
Result block: 1 (yes)

----------
TGT: 5-HT1A receptor (Rattus norvegicus, UniProt P19327)
Construct: from tissue; host or cells: whole animal (SD male rats), behavioural read-out
Sequence (P19327 1-422): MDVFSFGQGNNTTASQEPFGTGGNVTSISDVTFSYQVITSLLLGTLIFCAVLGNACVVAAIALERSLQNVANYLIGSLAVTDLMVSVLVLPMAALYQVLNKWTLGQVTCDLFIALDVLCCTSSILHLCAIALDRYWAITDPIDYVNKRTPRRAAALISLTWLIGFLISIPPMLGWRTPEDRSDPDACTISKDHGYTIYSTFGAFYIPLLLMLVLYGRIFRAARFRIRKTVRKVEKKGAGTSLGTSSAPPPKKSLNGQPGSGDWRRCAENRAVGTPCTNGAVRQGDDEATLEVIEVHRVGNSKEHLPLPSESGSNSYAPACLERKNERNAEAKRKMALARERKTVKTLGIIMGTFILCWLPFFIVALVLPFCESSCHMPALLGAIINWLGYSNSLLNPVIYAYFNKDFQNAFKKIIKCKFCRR
ASSAY OVERVIEW: Measurement of 5-HT1A receptor agonistic action on rats (in vivo): lower lip retraction and flat body posture
CONDITIONS: SD male rats, 10 mg/kg intraperitoneal; maximum of group evaluation points, 4 grades 0-3, observed 5-30 min after administration
EXPERIMENTAL ENDPOINT: 5-HT1A Receptor Agonistic Action on Rats, FBP
Lab note: write the figure by itself, no unit.

COc1ccc2ccnc(N3CCNCC3)c2c1 [Production Example 34, 7-methoxy-1-piperazin-1-ylisoquinoline] ... 2.8
CN1CCN(c2nccc3ccsc23)CC1 [Production Example 6] ... 2.4

// field: 5-HT1A Receptor Agonistic Action on Rats, FBP; key: CCn1c(CCCCN2CCN(c3ccc4ccccc4n3)CC2)nc2c(c1=O)CCCC2 [Example 7-2] ; value = 0.4

----------
Below, each entry is listed with its recorded inhibition at 0.1 µM.
TGT: human 5-HT1A receptor (Homo sapiens)
Construct: purchased Packard Bioscience; host or cells: CHO cells (membrane preparation)
Sequence (P08908 1-422): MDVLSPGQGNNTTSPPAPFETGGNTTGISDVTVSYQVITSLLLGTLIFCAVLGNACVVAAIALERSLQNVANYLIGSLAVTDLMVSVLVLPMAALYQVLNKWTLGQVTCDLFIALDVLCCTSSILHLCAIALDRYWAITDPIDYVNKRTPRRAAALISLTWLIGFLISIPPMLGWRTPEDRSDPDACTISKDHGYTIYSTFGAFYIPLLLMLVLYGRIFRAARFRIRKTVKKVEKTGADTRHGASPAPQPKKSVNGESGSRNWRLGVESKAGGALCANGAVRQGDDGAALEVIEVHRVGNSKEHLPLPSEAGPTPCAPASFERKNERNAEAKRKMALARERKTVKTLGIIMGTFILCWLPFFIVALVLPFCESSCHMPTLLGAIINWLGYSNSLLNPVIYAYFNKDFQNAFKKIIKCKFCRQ
ASSAY OVERVIEW: Affinity measurement of the compounds to human 5-HT1A receptor (in vitro), [3H]8-OH-DPAT binding
CONDITIONS: test compound 100 nmols/L; [3H]8-OH-DPAT 0.25 nmols/L; CHO cell membrane expressing human 5-HT1A receptor; read-out: Percent Inhibition (%) on Each Receptor's Binding at 10^−7M, 5-HT1A
Structures can show the parent of a compound that is named as a salt.
Express the result in % but write the number alone.

CCC1CCc2nc(CCCCN3CCN(c4ccc5ccccc5n4)CC3)n(N)c(=O)c2C1 (centres unmarked) ... 96.8

// field: inhibition at 0.1 µM; key: `COc1ccc2ccnc(N3CCN(Cc4ccc5c(c4)OCO5)CC3)c2c1` ; value = 94.8

// field: inhibition at 0.1 µM; key: `CCn1c(CCCCN2CCN(c3cc(C)c4ccccc4n3)CC2)nc2c(c1=O)CCCC2` ; value = 96.9

// field: inhibition at 0.1 µM; key: `Cn1c(NCCCN2CCN(c3ccc4ccccc4n3)CC2)nc2ccccc2c1=O` ; value = 73.5

// field: inhibition at 0.1 µM; key: `CSc1ccc2ccnc(N3CCN4CCC[C@H]4C3)c2c1` ; value = 99.3

// field: inhibition at 0.1 µM; key: NN1Oc2c(sc3c2CCNC3)N=C1SCCCN1CCN(c2ccc3ccccc3n2)CC1 [Example 1-59, trihydrochloride] ; value = 100

// field: inhibition at 0.1 µM; key: `Cn1c(NCCCN2CCN(c3ccc4ccccc4n3)CC2)nc2c(c1=O)CCCC2` ; value = 80.8

// field: inhibition at 0.1 µM; key: `Cn1c(CCCCN2CCN(c3ccc4ccccc4n3)CC2)nc2cccc(Cl)c2c1=O` ; value = 93.1
